Values were extracted from the supplement of paper PMC10567573.

assay: protein stability index of a GFP-peptide fusion (GPS, HEK-293T) (PSI 1-6); higher = more stable; conditions: treatment: MLN4924 1 uM, 8 h; c terminus: a fixed tail appended;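 note: 24-mer peptide tiles fused after GFP, lentivirally expressed, FACS-sorted into six equal bins by GFP/DsRed ratio, decoded by Illumina sequencing, PSI is the read-weighted mean bin number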
READOUT: protein stability index
Answer with the value's number alone.

Would you please look over these solved cases?
INSERT INTO assay_data (polymer_sequence, readout, reported_measurement) VALUES
  ('TSFEPEALGNLVEGMDFHRFYFEN [CAMK2B]', 'protein stability index', 3.18),
  ('PPPCKFGEGKLSKRLKHKDDSVMK [C22orf31]', 'protein stability index', 4.61),
  ('IALYFVSKKFKNCFQSCLCCCCYQ [EDNRA]', 'protein stability index', 2.13),
  ('SAVARSNSWMGSQGPMSQRRENYG [RBMY1A1]', 'protein stability index', 3.96);

protein stability index for IYSTKLYRFFKYIENRDVAKSVLK [BTBD10] is 2.37

# protein stability index of VACGMVHLLIPELGACVAPGGNLI [DNAAF3] = 3.11

EKDLVGLAQIAEVLEMFDLRMMVE [RHOBTB1] yielded protein stability index of 2.22

Measured protein stability index, FDPLRNEYFFDRNRPSFDAILYYY [KCNA1] : 2.73

The sequence listed as LTLVFFVQITGQPNILFYASTVLK [SLC2A12] shows protein stability index equal to 3.5

The sequence QRRSRQNPQSPPQDSSVTSKRNIK [HDAC6] showed protein stability index equal to 5.27

Memo: KNLKIWNVHTGEFRNCGACVTLMQ [WDR88] , reported protein stability index: 2.35
